meta.source: paper PMC6336804

Target Of Assay: HpIMPDH (Helicobacter pylori)
Construct: His tag; made in house; host or cells: E. coli Rosetta(DE3) pLysS, pET-28a(+)
Assay Summary: HpIMPDH enzyme inhibition assay (NADH fluorescence)
Format: biochemical
Condition Parameters: IC50, HpIMPDH inhibition, 100 nM HpIMPDH, NAD+ 300 µM, IMP 250 µM
Parameter Measured: pIC50
Please express pIC50 as -log10 of the molar concentration.

| Molecule | Measured |
| --- | --- |
| O=C(Cn1c(-c2ccccn2)nc2ccccc21)Nc1ccc2ccccc2c1 [Compound 1, reference compound] | 6.81 |

Below: the item to evaluate.
Q: For HpIMPDH (Helicobacter pylori), give pIC50 of the listed molecule: O=C(Cn1cc(C(=O)Nc2cccnc2)c2ccccc21)Nc1ccc(Br)cc1
Result: 5.72

* * *

Target Of Assay: HpIMPDH (Helicobacter pylori, UniProt P56088)
Construct: His tag; made in house; host or cells: E. coli Rosetta(DE3) pLysS, pET-28a(+)
Sequence (P56088 whole entry): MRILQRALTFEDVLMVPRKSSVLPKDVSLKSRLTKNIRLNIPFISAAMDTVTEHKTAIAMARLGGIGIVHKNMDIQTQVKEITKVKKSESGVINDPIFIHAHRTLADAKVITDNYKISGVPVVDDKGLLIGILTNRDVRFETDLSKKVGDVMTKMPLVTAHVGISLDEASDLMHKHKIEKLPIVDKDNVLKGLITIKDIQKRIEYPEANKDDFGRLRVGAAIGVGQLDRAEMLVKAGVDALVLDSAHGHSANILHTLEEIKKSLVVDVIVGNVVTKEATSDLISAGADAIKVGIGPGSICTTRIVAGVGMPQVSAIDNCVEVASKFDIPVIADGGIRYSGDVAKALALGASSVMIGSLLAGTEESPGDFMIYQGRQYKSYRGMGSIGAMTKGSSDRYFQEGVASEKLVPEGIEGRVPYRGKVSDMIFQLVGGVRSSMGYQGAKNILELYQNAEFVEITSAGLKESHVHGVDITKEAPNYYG
Assay Summary: HpIMPDH enzyme inhibition assay (NADH fluorescence)
Type: biochemical
Condition Parameters: IC50, inhibition profile of indole based compounds, Table S3
Parameter Measured: IC50 (µM)
Just the number in µM, nothing appended.

Q: Give the reported IC50 for this compound. O=C(Cn1cc(C(=O)Nc2cccnc2)c2ccccc21)Nc1ccc(Br)cc1 [Compound 2]
Result: 1.88
